Each recorded value in this set is attributed to ChEMBL document CHEMBL1141401.

target: UniProtKB P14416
Sequence (P14416 whole entry): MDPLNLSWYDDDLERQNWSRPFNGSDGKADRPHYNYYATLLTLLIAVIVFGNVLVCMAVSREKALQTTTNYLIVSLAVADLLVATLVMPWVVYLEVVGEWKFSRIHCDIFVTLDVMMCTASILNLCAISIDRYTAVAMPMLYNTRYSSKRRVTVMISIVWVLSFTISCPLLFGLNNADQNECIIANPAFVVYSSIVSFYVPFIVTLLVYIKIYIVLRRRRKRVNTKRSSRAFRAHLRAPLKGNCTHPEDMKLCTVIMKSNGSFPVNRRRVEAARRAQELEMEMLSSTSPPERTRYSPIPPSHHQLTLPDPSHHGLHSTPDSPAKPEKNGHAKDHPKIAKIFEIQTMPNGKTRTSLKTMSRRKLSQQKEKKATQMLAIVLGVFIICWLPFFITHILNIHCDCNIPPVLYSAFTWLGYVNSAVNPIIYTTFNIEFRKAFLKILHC
property_measured: Ki (nM)

O=C(NCCCCN1CCN(c2ccccc2Cl)CC1)c1ccc(-c2ccccc2)cc1	129
CCCc1c(C(=O)NCCCCN2CCN(c3ccccc3OC)CC2)nnn1Cc1ccccc1Br	21.9
Cc1c(C(=O)NCCCCN2CCN(c3cccc(Cl)c3Cl)CC2)nnn1Cc1ccccc1	38.9
COc1ccccc1N1CCN(CCCCNC(=O)c2nnn(Cc3ccccc3)c2C)CC1	229
c1ccc(C2CCN(Cc3cnn(-c4ccccc4)c3)CC2)cc1	38
O=C(NCCCCN1CCN(c2ccccc2Cl)CC1)c1ccc(Cl)cc1	468
COc1ccc(C(=O)NCCCCN2CCN(c3ccccc3Cl)CC2)cc1OC	282
CCCc1c(C(=O)NCCCCN2CCN(c3cccc(Cl)c3Cl)CC2)nnn1Cc1ccccc1	14.1
CCCc1c(C(=O)NCCCCN2CCN(c3ccccc3OC)CC2)nnn1Cc1ccccc1	57.5
CCCc1c(C(=O)NCCCCCN2CCN(c3ccccc3OC)CC2)nnn1Cc1ccccc1Br	5.25
